Reported switch fluorescence ratio by item:
system: ATP; assay: switch fluorescence ratio, 500 uM ATP over buffer (Cy3 cluster intensity, sum of 5 cycles each) (fold (ratio)); higher = stronger signal-on switching upon ATP binding; sequences stand for … in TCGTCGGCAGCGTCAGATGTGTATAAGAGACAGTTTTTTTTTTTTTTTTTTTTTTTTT…TC; conditions: aptamer strand: ATP DNA aptamer (quencher-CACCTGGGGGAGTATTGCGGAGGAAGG + anchor), 100 nM annealed; ATP concentration: 500 uM;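 further: ATP exposure 15 min at 22 °C before imaging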
Just the number, please, no unit attached.

The examples below pair each entry with its known result.
| primary.sequence | switch fluorescence ratio |
| --- | --- |
| GTTCGGCGAA | 1.02 |
| TTTAATTGTT | 0.978 |
| ACTATGGATG | 1.02 |
| TTTTTTGTAC | 1.06 |
| GGGGTTGTCA | 0.99 |

Prompt line: Lab note: need switch fluorescence ratio for TTTGGTATGT on ATP, anyone have it?
Response line: 1.03

Prompt line: Lab note: need switch fluorescence ratio for TGTATGGGGT on ATP, anyone have it?
Response line: 0.973

Prompt line: Lab note: need switch fluorescence ratio for GTTGAGCTGG on ATP, anyone have it?
Response line: 0.971

Prompt line: Lab note: need switch fluorescence ratio for GATAGTAAGT on ATP, anyone have it?
Response line: 0.998

Prompt line: Lab note: need switch fluorescence ratio for GAGTAAGTGG on ATP, anyone have it?
Response line: 0.99

Prompt line: Lab note: need switch fluorescence ratio for CATCATGTCT on ATP, anyone have it?
Response line: 1.01

Prompt line: Lab note: need switch fluorescence ratio for TTTACCGCTA on ATP, anyone have it?
Response line: 1.94

Prompt line: Lab note: need switch fluorescence ratio for TTCTATTTAA on ATP, anyone have it?
Response line: 1.02

Prompt line: Lab note: need switch fluorescence ratio for ACTTTGGTGG on ATP, anyone have it?
Response line: 1

Prompt line: Lab note: need switch fluorescence ratio for CATGGGGTGT on ATP, anyone have it?
Response line: 1.01

Prompt line: Lab note: need switch fluorescence ratio for TTTGTGCCTT on ATP, anyone have it?
Response line: 1.1

Prompt line: Lab note: need switch fluorescence ratio for CCAACTTGGA on ATP, anyone have it?
Response line: 0.985

* * *

system: ATP; assay: switch fluorescence ratio, 500 uM ATP over buffer (Cy3 cluster intensity, sum of 5 cycles each) (fold (ratio)); higher = stronger signal-on switching upon ATP binding; sequences stand for … in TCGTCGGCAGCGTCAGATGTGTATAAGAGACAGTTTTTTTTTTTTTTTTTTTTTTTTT…TC; details: aptamer strand: ATP DNA aptamer (quencher-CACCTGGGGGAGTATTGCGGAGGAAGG + anchor), 100 nM annealed; ATP concentration: 500 uM;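 further: ATP exposure 15 min at 22 °C before imaging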
Classify by measured switch fluorescence ratio: YES if it is equal to or exceeds 1, NO if it is smaller.

Solved entries:
| primary.sequence | assigned.category |
| --- | --- |
| TTCCGATTCG | YES |
| TGACGGGCAG | YES |
| TACGTACAGC | YES |

Prompt line: # bool: switch fluorescence ratio of TAAGATGGGG >= 1
Response line: NO

* * *

test system: ATP; assay: switch fluorescence ratio, 500 uM ATP over buffer (Cy3 cluster intensity, sum of 5 cycles each) (fold (ratio)); higher = stronger signal-on switching upon ATP binding; sequences stand for … in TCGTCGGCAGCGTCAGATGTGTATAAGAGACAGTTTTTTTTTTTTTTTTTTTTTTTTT…TC; settings: aptamer strand: ATP DNA aptamer (quencher-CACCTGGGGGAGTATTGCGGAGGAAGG + anchor), 100 nM annealed; ATP concentration: 500 uM;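 further: ATP exposure 15 min at 22 °C before imaging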
measurement.label: switch fluorescence ratio

The examples below pair each entry with its known result.
| primary.sequence | switch fluorescence ratio |
| --- | --- |
| GTTGTTGGGA | 0.99 |
| GGATATGGCA | 1.01 |
| GAGAAGGGAT | 0.999 |
| TTCTTTGATT | 1 |
| AACAGCTGTA | 1.05 |
| GACGTGAGGT | 1.02 |
| TTGGGGGTCT | 0.968 |
| AAACCAGGTA | 1.18 |

Prompt line: # get_value(readout='switch fluorescence ratio', item= CGATGTTTGG )
Response line: 0.988

Prompt line: # get_value(readout='switch fluorescence ratio', item= TCTTATCTGG )
Response line: 0.972

Prompt line: # get_value(readout='switch fluorescence ratio', item= TAGGGGGATT )
Response line: 1.01
